RUN_DESCRIPTION: relative bioavailability of oral formulations in rats (plasma DSB free acid)
Type: in vivo, Sprague Dawley rats
CONDITION_DESCRIPTION: male, Sprague-Dawley, rat, plasma, po, 25 mg/kg, single oral 25 mg/kg, solution in 1% ethanol/10% polyethylene glycol 400/water, average
ENDPOINT_LABEL: Cmax (ng/mL)
Write down the numeric answer in ng/mL and omit the unit.

Req: Identify the reported Cmax for the following entry. C=C(C)[C@@H]1CC[C@]2(C(=O)O)CC[C@]3(C)[C@H](CC[C@@H]4[C@@]5(C)CC[C@H](OC(=O)CC(C)(C)C(=O)O)C(C)(C)[C@@H]5CC[C@]43C)[C@@H]12 [DSB•2NMG Form I]
Resp: 8490

* * *

RUN_DESCRIPTION: relative bioavailability of oral formulations in rats (plasma DSB free acid)
Format: in vivo, Sprague Dawley rats
CONDITION_DESCRIPTION: Sprague-Dawley, rat, plasma; male rats, single oral 25 mg/kg, 10% hydroxypropyl-β-cyclodextrin solution, average; read-out: area under the plasma concentration-time curve from time zero extrapolated to infinity (AUCINF)
ENDPOINT_LABEL: AUC(0-inf) (ng·h/mL)
Kindly provide the numeric value in ng·h/mL only, without the unit symbol.

Req: For the compound C=C(C)[C@@H]1CC[C@]2(C(=O)O)CC[C@]3(C)[C@H](CC[C@@H]4[C@@]5(C)CC[C@H](OC(=O)CC(C)(C)C(=O)O)C(C)(C)[C@@H]5CC[C@]43C)[C@@H]12 , report AUC(0-inf).
Resp: 21500

* * *

RUN_DESCRIPTION: physchem
CONDITION_DESCRIPTION: 25 °C, organic solvent or mixture, approximate solubility, 2-butanol
ENDPOINT_LABEL: solubility

Req: Give the reported value of solubility for this record: C=C(C)[C@@H]1CC[C@]2(C(=O)O)CC[C@]3(C)[C@H](CC[C@@H]4[C@@]5(C)CC[C@H](OC(=O)CC(C)(C)C(=O)O)C(C)(C)[C@@H]5CC[C@]43C)[C@@H]12 [DSB•2NMG Form I]
Resp: < 3 mg/mL

* * *

RUN_DESCRIPTION: physchem
CONDITION_DESCRIPTION: 25 °C, organic solvent or mixture, approximate solubility, 2-propanol
ENDPOINT_LABEL: solubility

Req: Consider the molecule C=C(C)[C@@H]1CC[C@]2(C(=O)O)CC[C@]3(C)[C@H](CC[C@@H]4[C@@]5(C)CC[C@H](OC(=O)CC(C)(C)C(=O)O)C(C)(C)[C@@H]5CC[C@]43C)[C@@H]12 [DSB•2NMG Form I] . State its measured solubility.
Resp: < 3000 µg/mL

* * *

RUN_DESCRIPTION: physchem
CONDITION_DESCRIPTION: 25 °C, organic solvent or mixture, approximate solubility, dimethyl formamide
ENDPOINT_LABEL: solubility

Req: Hello, please tell me recorded solubility for this one: C=C(C)[C@@H]1CC[C@]2(C(=O)O)CC[C@]3(C)[C@H](CC[C@@H]4[C@@]5(C)CC[C@H](OC(=O)CC(C)(C)C(=O)O)C(C)(C)[C@@H]5CC[C@]43C)[C@@H]12 [DSB•2NMG Form I]
Resp: > 50 mg/mL

* * *

RUN_DESCRIPTION: physchem
CONDITION_DESCRIPTION: 25 °C, organic solvent or mixture, approximate solubility, ethanol
ENDPOINT_LABEL: solubility

Req: Return reported solubility. Input compound: C=C(C)[C@@H]1CC[C@]2(C(=O)O)CC[C@]3(C)[C@H](CC[C@@H]4[C@@]5(C)CC[C@H](OC(=O)CC(C)(C)C(=O)O)C(C)(C)[C@@H]5CC[C@]43C)[C@@H]12 [DSB•2NMG Form I]
Resp: ~5000 µg/mL

* * *

RUN_DESCRIPTION: relative bioavailability of oral formulations in rats (plasma DSB free acid)
Assay type: in vivo, Sprague Dawley rats
CONDITION_DESCRIPTION: male, Sprague-Dawley, rat, plasma, po, 25 mg/kg, single oral 25 mg/kg, solution in 10% propylene glycol/water, average
ENDPOINT_LABEL: Cmax (ng/mL)
Write the number in ng/mL without appending the unit.

Req: Read the entry C=C(C)[C@@H]1CC[C@]2(C(=O)O)CC[C@]3(C)[C@H](CC[C@@H]4[C@@]5(C)CC[C@H](OC(=O)CC(C)(C)C(=O)O)C(C)(C)[C@@H]5CC[C@]43C)[C@@H]12 [DSB•2NMG Form I] and write its reported Cmax.
Resp: 10400

* * *

RUN_DESCRIPTION: relative bioavailability of oral formulations in rats (plasma DSB free acid)
Assay type: in vivo, Sprague Dawley rats
CONDITION_DESCRIPTION: male, Sprague-Dawley, rat, plasma, po, 25 mg/kg, single oral 25 mg/kg, solution in water, average
ENDPOINT_LABEL: Cmax (ng/mL)
Give the quantity in ng/mL, number only.

Req: Fill in Cmax for record C=C(C)[C@@H]1CC[C@]2(C(=O)O)CC[C@]3(C)[C@H](CC[C@@H]4[C@@]5(C)CC[C@H](OC(=O)CC(C)(C)C(=O)O)C(C)(C)[C@@H]5CC[C@]43C)[C@@H]12 [DSB•2NMG Form I]
Resp: 9770

* * *

RUN_DESCRIPTION: physchem
CONDITION_DESCRIPTION: 25 °C, organic solvent or mixture, approximate solubility, 1-propanol
ENDPOINT_LABEL: solubility

Req: // fetch solubility given entry C=C(C)[C@@H]1CC[C@]2(C(=O)O)CC[C@]3(C)[C@H](CC[C@@H]4[C@@]5(C)CC[C@H](OC(=O)CC(C)(C)C(=O)O)C(C)(C)[C@@H]5CC[C@]43C)[C@@H]12 [DSB•2NMG Form I]
Resp: ~5000 µg/mL
